FYI, the data here is from paper PMC10525924.

tested on: E. coli K88; assay: microbe, parasite or virus in culture; assay type: cell-based; conditions: supernatant treated with trypsin 50 μg/mL, 37 °C, 3 h, pH 6.8; agar diffusion, 37 °C 24 h; dash = no zone
Where a SMILES comes first, the peptide text is derived from it.
Endpoint Label: Diameters of the inhibition zones, Trypsin-Treated Group, K88 (mm)
Hi! Could you send only the number? It should be in mm, unit omitted.

QUERY: Given the entry CSCC[C@H](NC=O)C(=O)N[C@@H](Cc1c[nH]cn1)C(=O)N[C@H](C(=O)NCC(=O)N[C@@H](CC(N)=O)C(=O)N[C@@H](C)C(=O)N[C@@H](CC(=O)O)C(=O)NP(=O)(OCCCN)OC[C@H]1O[C@@H](n2cnc3c(N)ncnc32)[C@H](O)[C@@H]1O)[C@@H](C)O (stereo partly shown) [R2H] (HELM PEPTIDE1{[O=C[*:2]].M.H.T.G.N.A.[NCCCOP(=O)(NC(=O)[C@H](CC(=O)O)N[*:1])OC[C@H]1O[C@@H](n2cnc3c(N)ncnc32)[C@H](O)[C@@H]1O]}$$$$V2.0) , what Diameters of the inhibition zones, Trypsin-Treated Group, K88 was observed with E. coli K88?
RESULT: 11.99
